- TEST_SYSTEM: Tyrosine-protein phosphatase non-receptor type 1 (Homo sapiens)
- Sequence (P18031 whole entry, the tested form may be a part): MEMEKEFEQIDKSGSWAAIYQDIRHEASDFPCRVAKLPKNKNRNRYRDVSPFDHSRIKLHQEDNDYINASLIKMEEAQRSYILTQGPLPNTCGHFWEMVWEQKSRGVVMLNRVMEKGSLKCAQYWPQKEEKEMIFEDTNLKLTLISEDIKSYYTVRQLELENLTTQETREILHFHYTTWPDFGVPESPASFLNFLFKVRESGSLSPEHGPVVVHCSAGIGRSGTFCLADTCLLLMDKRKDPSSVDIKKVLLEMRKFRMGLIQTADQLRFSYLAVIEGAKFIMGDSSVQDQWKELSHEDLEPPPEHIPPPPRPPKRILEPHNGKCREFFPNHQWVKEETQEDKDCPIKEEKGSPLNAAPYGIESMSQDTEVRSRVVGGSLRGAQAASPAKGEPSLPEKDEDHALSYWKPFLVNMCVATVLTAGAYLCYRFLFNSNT
- ASSAY_INFO: Competitive inhibition of N-terminal GST-tagged recombinant human PTP1B catalytic domain (1 to 321 residues) expressed in Escherichia coli assessed as inhibitory constant using pNPP as substrate preincubated for 10 mins followed by incubation with substrate for 30 mins and measured every 5 mins for 30 mins by Lineweaver-burk plot based Dixon plot analysis
pKi: −log10 of the molar value.

{"columns": ["SMILES_TEXT", "pKi"],
 "data": [
  ["CC1=C2COC(=O)[C@@H](CO)[C@H]2[C@H](O)C1", 5.59],
  ["CC1=C2COC(=O)[C@H](CO)[C@H]2[C@H](O)C1", 5.38]
]}
